Tested on: MOLT-4
Test: NCI tumour cell line growth inhibition, 48 h
Activity calls are given as the source filed them. No stated cut-off is given here; in the data, active = GI50 up to about 1.1 µM and inactive = higher.
Outcomes: 1.0 for active, 0.0 for inactive

COMPOUND | SUBJECT OF TEST | QUALITATIVE LABEL
COc1c(O)ccc2c1CN1CCc3cc4c(cc3C1C2)OCO4 (centres undefined) | MOLT-4 | 0.0
Cc1ccccc1C1CC(=O)CC(c2ccccc2C)C12C(=O)NC(=S)NC2=O (centres undefined) | MOLT-4 | 0.0
COc1cc2c(cc1OC)C(Cl)C(c1ccc(F)cc1)=C2Cl (centres undefined) | MOLT-4 | 0.0
C=CCN1C(N)=C(C(N)=O)S/C1=C1/SC(=S)N(c2ccc(C)cc2)C1=O | MOLT-4 | 0.0
CC(=O)c1nc2ccccc2n1CC(=O)c1ccc([N+](=O)[O-])cc1 | MOLT-4 | 0.0
O=C(CCl)NC(Cc1ccc(F)cc1)C(=O)O (centres undefined) | MOLT-4 | 0.0
Cc1cc2c3c(c1)S(=O)(=O)c1cc(Cl)ccc1N3CCC2 | MOLT-4 | 0.0
COc1c(C)c(C/C=C(\C)CCCCO)c(OC)c(OC)c1OC | MOLT-4 | 0.0
O=C(CSc1nc2ccccc2c2ccccc12)c1ccccc1 | MOLT-4 | 0.0
COc1ccc(N2C(=O)CC(=O)N(NC(=O)C(C)Oc3ccccc3C)C2=S)cc1 (centres undefined) | MOLT-4 | 0.0
Nc1[nH]nc2ccccc12 | MOLT-4 | 0.0
COc1cc(/C=C2\C(=O)N(C(=O)Cc3ccccc3)N=C2C)ccc1O | MOLT-4 | 0.0
NC(=S)N/N=C/c1nccc2ccccc12 | MOLT-4 | 1.0
COc1cc(C(C#N)NNC(=O)Cc2ccccc2)cc(OC)c1OC (centres undefined) | MOLT-4 | 0.0
